target: KRAS G12V (Homo sapiens, UniProt P01116+P62937, G12V)
Sequence (P01116 1-169 isoform P01116-2 G12V limits assumed): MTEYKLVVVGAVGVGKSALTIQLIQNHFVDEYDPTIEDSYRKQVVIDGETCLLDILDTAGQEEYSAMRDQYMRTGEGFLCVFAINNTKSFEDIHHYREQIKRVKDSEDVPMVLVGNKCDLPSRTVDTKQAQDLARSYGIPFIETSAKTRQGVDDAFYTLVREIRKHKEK
Sequence (P62937 whole entry): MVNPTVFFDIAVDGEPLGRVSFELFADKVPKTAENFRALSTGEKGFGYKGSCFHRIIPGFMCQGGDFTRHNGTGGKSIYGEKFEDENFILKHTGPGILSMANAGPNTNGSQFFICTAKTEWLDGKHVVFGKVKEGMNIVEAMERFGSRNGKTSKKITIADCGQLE
test-details: Ras-Raf disruption / FRET / MOA assay (BRAF RBD)
Assay type: biochemical
recorded-conditions: Ras-Raf disruption, with Cyclophilin A; read-out: KRAS G12V FRET data IC50
pIC50: −log10 of the molar value.
property: pIC50

Examples with their reported pIC50 follow.
molecule	pIC50
CCn1c(-c2cccnc2[C@H](C)OC)c2c3cc(ccc31)-c1csc(n1)C[C@H](NC(=O)[C@H](C(C)C)N(C)C(=O)N(C)[C@H]1CCN(C(=O)[C@H]3CN3)C1)C(=O)N1CCC[C@H](N1)C(=O)OCC(C)(C)C2 (atropisomer, axis not shown)	5.00 to 6.00
CCn1c(-c2cccnc2[C@H](C)OC)c2c3cc(ccc31)-c1cccc(c1)C[C@H](NC(=O)[C@H](C1CCCC1)N1CC[C@]3(CCN(C(=O)[C@@H]4N[C@@H]4C4CC4)C3)C1=O)C(=O)N1CCC[C@H](N1)C(=O)OCC(C)(C)C2	5.00 to 6.00

# ---- query molecule ----
Measured pIC50, CCn1c(-c2cccnc2[C@H](C)OC)c2c3cc(ccc31)-c1cc(O)cc(c1)C[C@H](NC(=O)[C@H](C(C)C)N(C)C(=O)N1CCN(C(=O)[C@@H]3CN3)CC1=O)C(=O)N1CCC[C@H](N1)C(=O)OCC(C)(C)C2 (atropisomer, axis not shown) : 6.00 to 7.00
